B1: library; numbered along this chain (parent)
chain: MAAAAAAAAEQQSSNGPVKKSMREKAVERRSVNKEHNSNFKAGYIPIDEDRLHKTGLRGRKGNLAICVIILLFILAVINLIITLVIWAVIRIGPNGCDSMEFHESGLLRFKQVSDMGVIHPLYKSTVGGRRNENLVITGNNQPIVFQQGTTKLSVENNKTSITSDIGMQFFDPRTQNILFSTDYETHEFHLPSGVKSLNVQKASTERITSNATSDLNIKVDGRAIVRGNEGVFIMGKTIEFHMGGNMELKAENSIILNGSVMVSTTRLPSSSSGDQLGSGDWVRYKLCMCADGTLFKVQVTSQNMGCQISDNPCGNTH

- Variants of: B1
- test_method_notes: SGCB cell-surface expression functional score (HA stain, bin4 vs bin1, normalised to synonymous) (log10 ratio); higher = more cell-surface SGCB (functional)
Classification field: enter t for SGCB cell-surface expression functional score (log10) values not below -0.2, f for values below it.

A8S : t
L191R : f
R131G : t
E156V : f
I78C : t

Then there is this variant:
Request: Hi, just wondering whether N158R shows SGCB cell-surface expression functional score (log10) of -0.2 or higher.
Result: f

Data credit: the supplement of paper PMC10266784
